Origin of values: PubChem BioAssay AID1851

TARGET_OF_ASSAY: Cytochrome P450 2C9 (Homo sapiens) (UniProt P11712)
Sequence (P11712 whole entry, looked up): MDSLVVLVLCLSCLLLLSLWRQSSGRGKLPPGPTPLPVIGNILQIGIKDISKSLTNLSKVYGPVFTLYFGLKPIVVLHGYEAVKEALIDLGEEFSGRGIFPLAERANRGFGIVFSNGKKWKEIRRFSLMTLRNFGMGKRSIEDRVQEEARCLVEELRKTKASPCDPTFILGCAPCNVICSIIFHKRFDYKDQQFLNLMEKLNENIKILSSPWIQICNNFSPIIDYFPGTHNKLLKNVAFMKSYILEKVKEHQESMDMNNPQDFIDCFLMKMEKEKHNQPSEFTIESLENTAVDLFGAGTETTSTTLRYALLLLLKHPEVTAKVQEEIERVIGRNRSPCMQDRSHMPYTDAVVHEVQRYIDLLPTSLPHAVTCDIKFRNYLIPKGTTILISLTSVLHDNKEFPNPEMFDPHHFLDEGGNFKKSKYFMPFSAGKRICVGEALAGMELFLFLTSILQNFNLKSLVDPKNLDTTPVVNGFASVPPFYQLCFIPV
TEST_METHOD_NOTES: Cytochrome panel assay with activity outcomes; also: % is scaled to controls: 0 for no effect and ±100 for the full control effect
PROTOCOL_CONDITIONS: recombinant CYP, pro-luciferin dealkylation, luminescence, p450-cyp2c9; series mostly up to 57.1 µM
About 4,000 (25%) of roughly 16,000 compounds were called active. Inconclusive results (about 26%) are left out. The list is a sample of the results.
// values below are reported activity, negative = inhibition
METRIC_NAME: activity, negative = inhibition

[[record]]
molecule = "CC1(CC(=O)O)O[C@H]2CCCCC[C@H]2O1 (stereo partly specified) (tested in a mixture with another compound)"
result = "1.04% [at 11.4 µM] (inactive)"

[[record]]
molecule = "O=C(O)[C@@H]1CCCN1Cc1ccc2c(c1)OCO2"
result = "-5.38% [at 11.4 µM] (inactive)"

[[record]]
molecule = "CC(CC(=O)O)(CC(=O)O)C(=O)O"
result = "-9.5% [at 11.4 µM] (inactive)"

[[record]]
molecule = "CC(C)(C)c1cc2c(O)c(c1)Cc1cc(C(C)(C)C)cc(c1O)Cc1cc(C(C)(C)C)cc(c1O)Cc1cc(C(C)(C)C)cc(c1O)Cc1cc(C(C)(C)C)cc(c1O)Cc1cc(C(C)(C)C)cc(c1O)Cc1cc(C(C)(C)C)cc(c1O)Cc1cc(C(C)(C)C)cc(c1O)C2"
result = "-3.37% [at 11.4 µM] (inactive)"

[[record]]
molecule = "CN(C)c1ccc(-c2nc(NCCN3CCOCC3)c3ccccc3n2)cc1"
result = "10.3% [at 2.29 µM] (inactive)"

[[record]]
molecule = "COCCNc1ncnc2ccc(-c3cccc(NS(C)(=O)=O)c3)cc12"
result = "16.7% [at 2.29 µM] (inactive)"

[[record]]
molecule = "CNc1nc(-c2cccc(NS(C)(=O)=O)c2)nc2ccccc12"
result = "27.5% [at 2.29 µM] (inactive)"

[[record]]
molecule = "CCOc1ccc2c(ccc(/C=C\\c3cc(C)c4cccnc4c3O)[n+]2C)c1"
result = "5.89% [at 11.4 µM] (inactive)"

[[record]]
molecule = "O=C1CSC2(CCN(CCCN3c4ccccc4Sc4ccc(Cl)cc43)CC2)N1"
result = "4.61% [at 11.4 µM] (inactive)"

[[record]]
molecule = "C[N+]1(CCC[N+]2(C)C[C@H]3[C@H](C2)[C@H]2C=C[C@@H]3CC2)CCOCC1 (stereo partly specified)"
result = "-9.72% [at 11.4 µM] (inactive)"

[[record]]
molecule = "O=C(O)C(=O)/C=C(\\O)c1ccc(Br)cc1"
result = "-19.1% [at 11.4 µM] (inactive)"

[[record]]
molecule = "COc1ccc(CNc2ncncc2-c2cccc(NS(C)(=O)=O)c2)c(OC)c1"
result = "-18.5% [at 2.29 µM] (inactive)"

[[record]]
molecule = "CSc1nc(C)cc(Nc2ccc(O)c(CN3CCOCC3)c2)n1"
result = "-8.69% [at 11.4 µM] (inactive)"

[[record]]
molecule = "CC1(C)[C@@H]2CC[C@]1(C)[C@@H](OC(=O)CSC#N)C2"
result = "-16.1% [at 11.4 µM] (inactive)"

[[record]]
molecule = "N=C(N)c1ccc(N=Nc2c(O)ccc3c2[nH]c2ccccc23)cc1"
result = "-5.45% [at 11.4 µM] (inactive)"

[[record]]
molecule = "Nc1nc(-c2ccccc2)c(-c2ccccc2)c(-c2nc(N)nc(-c3ccccc3)c2-c2ccccc2)n1"
result = "-3.1% [at 11.4 µM] (inactive)"

[[record]]
molecule = "CC[C@@]1([N+](=O)[O-])C[C@H]2C=C[C@@H]1C2"
result = "-0.495% [at 11.4 µM] (inactive)"

[[record]]
molecule = "NS(=O)(=O)c1ccc(NC(=O)Nc2cccc3ccccc23)cc1"
result = "-9.47% [at 11.4 µM] (inactive)"

[[record]]
molecule = "Cc1ccc(S(=O)(=O)N[C@H](C(=O)O)C(C)C)cc1"
result = "-4.41% [at 11.4 µM] (inactive)"

[[record]]
molecule = "Cc1cc(C)c2c(SCc3ccc(Cl)cc3Cl)nc(N)nc2n1"
result = "-3.34% [at 11.4 µM] (inactive)"

[[record]]
molecule = "COCCNc1ncnc2ccc(-c3c(C)noc3C)cc12"
result = "7.8% [at 2.29 µM] (inactive)"

[[record]]
molecule = "C[C@@]1(C(=O)O)CCC[C@@H]1C(=O)O"
result = "2.33% [at 11.4 µM] (inactive)"

[[record]]
molecule = "CN(C)CCn1c(CO)nc2c1c(=O)n(C)c(=O)n2C"
result = "0.0092% [at 11.4 µM] (inactive)"

[[record]]
molecule = "NC(=O)[C@@H]1CCCN1Cc1ccc2c(c1)OCO2"
result = "-2.9% [at 11.4 µM] (inactive)"

[[record]]
molecule = "Clc1ccc(CSC2=NCCN2)cc1Cl"
result = "9.47% [at 11.4 µM] (inactive)"

[[record]]
molecule = "CN[C@@H]1NC(=O)c2ccccc2N1Cc1ccc(F)cc1"
result = "4.34% [at 11.4 µM] (inactive)"

[[record]]
molecule = "C#CCCCO/N=C1/C[C@@H](O)[C@@H](O)[C@@H]2[C@@H]3C(=O)N(CC)C(=O)[C@H]3CC[C@@H]12"
result = "0.179% [at 11.4 µM] (inactive)"

[[record]]
molecule = "O=S(=O)(O)c1cc(N=Nc2cccc3ccccc23)c(O)c2ncccc12"
result = "-11.1% [at 11.4 µM] (inactive)"

[[record]]
molecule = "Cc1cnc(CNc2ncncc2-c2ccccc2C#N)cn1"
result = "-5.28% [at 2.29 µM] (inactive)"

[[record]]
molecule = "Cc1cc(Cl)ccc1OCC(=O)Nc1nc(N)nc(N)n1"
result = "23.6% [at 11.4 µM] (inactive)"

[[record]]
molecule = "C[C@@H](c1ccccc1)N1C(=O)[C@@H]2[C@H]3C(=CC[C@H]2C1=O)C(=O)[C@H]1O[C@H]1[C@H]3O"
result = "-6.91% [at 11.4 µM] (inactive)"

[[record]]
molecule = "CN(C)C(=O)c1ccc(-c2cncnc2NC2CCNCC2)cc1"
result = "15.8% [at 2.29 µM] (inactive)"

[[record]]
molecule = "Cc1ccc(S(=O)(=O)N[C@H]2COC(=O)C/C=C\\[C@H](C)[C@@H](NS(=O)(=O)c3ccc(C)cc3)COC(=O)C/C=C\\[C@@H]2C)cc1"
result = "-6.21% [at 11.4 µM] (inactive)"

[[record]]
molecule = "O=C(O)[C@@H]1[C@@H](C(=O)NCc2ccccn2)[C@@H]2C=C[C@@H]1O2"
result = "1.33% [at 11.4 µM] (inactive)"

[[record]]
molecule = "CO[C@H]1COC(=O)[C@H](C)COC(=O)[C@@H](Cc2ccccc2)NC(=O)C/C=C\\[C@H]1C"
result = "-8.74% [at 11.4 µM] (inactive)"

[[record]]
molecule = "CC(=NCC(=O)O)c1ccccc1"
result = "2.4% [at 11.4 µM] (inactive)"

[[record]]
molecule = "Cc1cccc(CNc2nc(-c3ccoc3)nc3ccccc23)c1"
result = "-6.69% [at 2.29 µM] (inactive)"

[[record]]
molecule = "CO[C@@H]1COC(=O)CCC[C@@H](C)[C@H](OC)COC(=O)CCC[C@H]1C"
result = "-7% [at 11.4 µM] (inactive)"

[[record]]
molecule = "COCCNc1nc(-c2cccc(NS(C)(=O)=O)c2)nc2ccccc12"
result = "2.19% [at 2.29 µM] (inactive)"

[[record]]
molecule = "O=C(O)c1c2c(c(O)c3c1CN(C1CCCCC1)CO3)OCN(C1CCCCC1)C2"
result = "-1.96% [at 11.4 µM] (inactive)"

[[record]]
molecule = "NCCSc1nc(-c2ccccc2)c(-c2ccccc2)o1"
result = "-11.6% [at 11.4 µM] (inactive)"

